Reference for the values: patent US20250313563A1

system: GSK3b (GST-full length GSK3b) (Homo sapiens (Human))
method_summary: GSK3b TR-FRET kinase assay
Assay type: biochemical
reported_conditions: 1 nM GSK3b, 2 μM ATP, 30 minute preincubation, Table 16; read-out: GSK3-B TR-FRET BIOCHEMICAL (TR-FRET)
pIC50: −log10 of the molar value.
readout_type: pIC50

Worked cases, pIC50 given:
| molecule | system | pIC50 |
| --- | --- | --- |
| Cc1ccc(S(=O)(=O)N2CCC3(CC2)C2=C(CC(C)(C)CC2=O)Nc2n[nH]cc23)s1 | GSK3b (GST-full length GSK3b) (Homo sapiens (Human)) | ≥ 7.00 |
| CC[C@@]1(c2ccccc2)C2=C(C[C@@]3(CCN(C)C3=O)CC2=O)Nc2n[nH]cc21 | GSK3b (GST-full length GSK3b) (Homo sapiens (Human)) | < 5.30 |
| CCC1(c2cccc(-c3cc(OC)ncc3F)c2)C2=C(CC(C)(C)CC2=O)Nc2n[nH]cc21 (stereo not drawn) | GSK3b (GST-full length GSK3b) (Homo sapiens (Human)) | ≥ 7.00 |

// lookup pIC50 | system=GSK3b (GST-full length GSK3b) (Homo sapiens (Human)) | key= CC1(C)CC(=O)C2=C(C1)Nc1n[nH]cc1[C@@]21CCN(S(=O)(=O)CC2CC2)C1
≥ 7.00

Same question, CC1(C)CC(=O)C2=C(C1)Nc1n[nH]cc1[C@@]21CC[C@H](C(F)(F)F)C1 this time
6.00 to 7.00

Same thing, different molecule: CCC1(c2cccc(Nc3ncccn3)c2)C2=C(CC(C)(C)CC2=O)Nc2n[nH]cc21 (stereo not drawn) [Compound 945943]
6.00 to 7.00

---

# Lookup of reported IC50 keyed by entry
system: GSK3b (GST-full length GSK3b) (Homo sapiens (Human), UniProt P49841)
Sequence (P49841 whole entry): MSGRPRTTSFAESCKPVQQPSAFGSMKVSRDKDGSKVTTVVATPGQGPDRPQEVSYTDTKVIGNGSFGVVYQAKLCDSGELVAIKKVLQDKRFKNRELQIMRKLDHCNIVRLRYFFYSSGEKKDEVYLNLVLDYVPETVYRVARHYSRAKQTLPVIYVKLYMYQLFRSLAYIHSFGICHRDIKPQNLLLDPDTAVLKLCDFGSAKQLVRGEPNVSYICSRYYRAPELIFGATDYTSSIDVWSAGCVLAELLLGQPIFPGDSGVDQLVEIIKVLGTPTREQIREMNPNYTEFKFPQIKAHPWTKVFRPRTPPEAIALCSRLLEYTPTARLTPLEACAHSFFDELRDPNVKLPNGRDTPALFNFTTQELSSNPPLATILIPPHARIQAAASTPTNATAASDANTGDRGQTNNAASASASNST
method_summary: GSK3b TR-FRET kinase assay
Format: biochemical
reported_conditions: 1 nM GSK3b, 2 μM ATP, 30 minute preincubation, Table 16; read-out: GSK3-B TR-FRET BIOCHEMICAL (TR-FRET)

Answered cases to consult:
| molecule | readout_type | reported_result |
| --- | --- | --- |
| O=C1C2=C(Nc3n[nH]cc3C23CCOCC3)C2CCC1C2 (stereo not shown) | IC50 | 100 to 1000 nM |
| CC[C@@]1(c2cccc(-c3c(F)cncc3OC)c2)C2=C(CC(C)(C)CC2=O)Nc2n[nH]cc21 | IC50 | ≤ 100 nM |
| CCc1ncc(S(=O)(=O)N2CCC3(CC2)C2=C(CC(C)(C)CC2=O)Nc2n[nH]cc23)s1 | IC50 | ≤ 100 nM |
| CC1(C)CC(=O)C2=C(C1)Nc1n[nH]cc1[C@@]21CCOC(C)(C)C1 | IC50 | 100 to 1000 nM |
| CCC1(c2cccc(S(=O)(=O)C3COC3)c2)C2=C(CC(C)(C)CC2=O)Nc2n[nH]cc21 (stereo not shown) [Compound 946003] | IC50 | > 5000 nM |

Tell me the measured IC50 of CC1(C)CC(=O)C2=C(C1)Nc1n[nH]cc1C21CCN(S(=O)(=O)c2cnn3c2CCCC3)CC1 , please.
≤ 100 nM

Similarly, CCC1(c2cccc(-c3c(F)cncc3OC)c2)C2=C(CC(C)(C)CC2=O)Nc2n[nH]cc21 (stereo not shown) ?
≤ 100 nM
